src = patent US7507739B2

- Tested on: tubulin heterodimer
- procedure_summary: Competitive binding test, [3H]vinblastine
- Parameters: species or system bovine
- condition: [3H]vinblastine 100 nM
Please go through the items and note down their [3H]Vinblastine binding, percent of control without competitor, Mean.
Only the number, expressed in %, is required.

Query :: Would you mind telling me what [3H]Vinblastine binding, percent of control without competitor, Mean value was observed for CNCCCOc1cc(F)c(-c2c(Cl)nc3ncnn3c2NCC(F)(F)F)c(F)c1.Cl ?
Result :: 11

Query :: Would you mind telling me what [3H]Vinblastine binding, percent of control without competitor, Mean value was observed for OCCCOc1cc(F)c(-c2c(Cl)nc3ncnn3c2C2CCCCCC2)c(F)c1 ?
Result :: 14

Query :: Would you mind telling me what [3H]Vinblastine binding, percent of control without competitor, Mean value was observed for CNCCCOc1cc(F)c(-c2c(Cl)nc3ncnn3c2N[C@@H](C)C(F)(F)F)c(F)c1.Cl ?
Result :: 11

Query :: Would you mind telling me what [3H]Vinblastine binding, percent of control without competitor, Mean value was observed for C[C@H](Nc1c(-c2c(F)cc(OCCCO)cc2F)c(Cl)nc2ncnn12)C(F)(F)F ?
Result :: 19

Query :: Would you mind telling me what [3H]Vinblastine binding, percent of control without competitor, Mean value was observed for C[C@H](Nc1c(-c2c(F)cc(OCCCN(C)C)cc2F)c(Br)nc2ncnn12)C(F)(F)F ?
Result :: 14
